Molecular target: T1, Human Aβ(1–42)-HiLyte^TM-Fluor555 (human, UniProt P05067 672-713, HiLyte^TM-Fluor555 dye covalently bound to ASP1 (NH2-terminus amino acid))
T1 construct: Amyloid β peptide Aβ(1–42), human, cut product of the amyloid precursor protein; numbers count on: the Aβ peptide; source: bought: AnaSpec
Assay: other fluorescence titration; competition: 10 nM Aβ(1–42) HiLyte-Fluor555 preincubated 15 min with rising His6, then 5 nM calbindin-D28k added; attenuation of the maximum fluorescence increase; 50 mM HEPES, 100 mM KCl, 50 µM CaCl2, pH 7.05, 24–25 °C
Conditions: both partners purified
pIC50: −log10 of the molar value.
Measured Endpoint: pIC50

// field: pIC50; key: HHHHHH (hexa-histidine; source: bought: Quimigen) [hexa-histidine peptide (His6)] ; value = ~7.00
